Test: Cmax in Sprague-Dawley rat at 5 mg/kg, po measured for 24 hrs by LC-MS/MS analysis
Assay type: ADME, organism-based
Parameters: time 24 hrs, dose 5 mg/kg, route po
Details: in vivo
QUANTITY KIND: Cmax (ng/mL)
A number alone suffices; assume ng/mL.

Data request: # query: Cmax of entry O=S(=O)(c1cccc(Cl)c1)n1cc(C(F)F)c2c(N3CCNCC3)cccc21
Data returned: 44.1

Data request: Fill blank: measured Cmax of the compound O=S(=O)(c1ccccc1Cl)n1cc(C(F)F)c2c(N3CCNCC3)cccc21 is ____.
Data returned: 33.6

Data request: Could you tell me which Cmax is on file for O=S(=O)(c1ccccc1F)n1cc(C(F)F)c2c(N3CCNCC3)cccc21 ?
Data returned: 33.6

Data request: Which Cmax is reported for this compound? Cc1cn(S(=O)(=O)c2cccc(F)c2)c2cccc(N3CCNCC3)c12
Data returned: 3.61

Data request: I have this compound here, O=S(=O)(c1cccc(F)c1)n1cc(C(F)F)c2c(N3CCNCC3)cccc21 , and I need its recorded Cmax.
Data returned: 51.8

----------
Assay: AUC (0 to t) in Sprague-Dawley rat at 5 mg/kg, po measured for 24 hrs by LC-MS/MS analysis
Assay type: ADME, organism-based
Parameters: time 24 hrs, dose 5 mg/kg, route po
Settings: Sprague-Dawley, in vivo
Exercise: state measured AUC(0-t) at 24 h for each of the molecules provided.
Give just the number in ng·h/mL; leave the unit off.

Data request: May I ask what AUC(0-t) at 24 h has been recorded for O=S(=O)(c1ccccc1Cl)n1cc(C(F)F)c2c(N3CCNCC3)cccc21 ?
Data returned: 162

Data request: Find the recorded AUC(0-t) at 24 h belonging to O=S(=O)(c1ccccc1F)n1cc(C(F)F)c2c(N3CCNCC3)cccc21 and report it.
Data returned: 132

Data request: Returns the measured AUC(0-t) at 24 h for the input molecule. Input: O=S(=O)(c1cccc(Cl)c1)n1cc(C(F)F)c2c(N3CCNCC3)cccc21
Data returned: 348

Data request: Which AUC(0-t) at 24 h value is on record for O=S(=O)(c1cccc(F)c1)n1cc(C(F)F)c2c(N3CCNCC3)cccc21 ?
Data returned: 267

----------
Assay: Ratio of drug concentration in Sprague-Dawley rat brain to plasma at 1 mg/kg, iv measured after 15 mins by LC-MS/MS analysis
Format: ADME, organism-based
Settings: brain and plasma, read-out: BPR
QUANTITY KIND: Kp at 0.25 h
# answer = number (no unit)

Data request: Can you share its Kp at 0.25 h? I mean this compound: O=S(=O)(c1cccc(Cl)c1)n1cc(C(F)F)c2c(N3CCNCC3)cccc21
Data returned: 0.94

Data request: Reported Kp at 0.25 h, compound O=S(=O)(c1cccc(F)c1)n1cc(C(F)F)c2c(N3CCNCC3)cccc21 : ____
Data returned: 4.81

----------
Assay: Cmax in Sprague-Dawley rat at 2 mg/kg, iv measured for 24 hrs by LC-MS/MS analysis
Assay type: ADME, organism-based
Design: time 24 hrs, dose 2 mg/kg, route iv
Conditions: in vivo
Would you mind telling me the reported Cmax of each entry?
Enter your answer as a number in ng/mL; do not include the unit.

Data request: Given O=S(=O)(c1ccccc1Cl)n1cc(C(F)F)c2c(N3CCNCC3)cccc21 , state its recorded Cmax.
Data returned: 120

Data request: Which measured Cmax value corresponds to O=S(=O)(c1cccc(Cl)c1)n1cc(C(F)F)c2c(N3CCNCC3)cccc21 ?
Data returned: 200

Data request: Report Cmax for O=S(=O)(c1cccc(F)c1)n1cc(C(F)F)c2c(N3CCNCC3)cccc21 please.
Data returned: 140

Data request: Quick one: Cmax for Cc1cn(S(=O)(=O)c2cccc(F)c2)c2cccc(N3CCNCC3)c12 ?
Data returned: 159

Data request: Look at this compound and give its reported Cmax. O=S(=O)(c1ccccc1F)n1cc(C(F)F)c2c(N3CCNCC3)cccc21
Data returned: 112

----------
Molecular target: 5-hydroxytryptamine receptor 6 (Homo sapiens, UniProt P50406)
Sequence (P50406 whole entry): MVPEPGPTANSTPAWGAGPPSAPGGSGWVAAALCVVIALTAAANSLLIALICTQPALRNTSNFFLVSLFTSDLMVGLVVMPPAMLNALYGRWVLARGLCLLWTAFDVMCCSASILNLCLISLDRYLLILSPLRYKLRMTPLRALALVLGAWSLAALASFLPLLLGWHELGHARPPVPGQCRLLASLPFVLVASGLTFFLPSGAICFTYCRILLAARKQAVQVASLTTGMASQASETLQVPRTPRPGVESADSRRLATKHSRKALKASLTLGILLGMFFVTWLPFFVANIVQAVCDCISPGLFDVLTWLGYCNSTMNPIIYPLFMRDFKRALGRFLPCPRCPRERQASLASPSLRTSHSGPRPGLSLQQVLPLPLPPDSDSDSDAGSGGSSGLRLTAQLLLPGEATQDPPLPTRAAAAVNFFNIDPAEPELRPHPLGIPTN
QUANTITY KIND: Ki (nM)
Write the answer as a number in nM, unit excluded.

Data request: Record request: Ki value, item Cc1cn(S(=O)(=O)c2cccc(F)c2)c2cccc(N3CCNCC3)c12
Data returned: 0.51

----------
Assay: Volume of distribution at steady state in Sprague-Dawley rat at 2 mg/kg, iv measured for 24 hrs by LC-MS/MS analysis
Format: ADME, organism-based
Conditions: in vivo, read-out: Vdss
QUANTITY KIND: Vd (L/kg)
Give the value in L/kg but do not write L/kg after it.

Data request: Which Vd value belongs to O=S(=O)(c1ccccc1Cl)n1cc(C(F)F)c2c(N3CCNCC3)cccc21 ?
Data returned: 25.8

Data request: # get_value(readout='Vd', item= O=S(=O)(c1cccc(F)c1)n1cc(C(F)F)c2c(N3CCNCC3)cccc21 )
Data returned: 18.8

Data request: Can you look up the measured Vd of O=S(=O)(c1cccc(Cl)c1)n1cc(C(F)F)c2c(N3CCNCC3)cccc21 for me?
Data returned: 26.6

Data request: What value of measured Vd is listed for O=S(=O)(c1ccccc1F)n1cc(C(F)F)c2c(N3CCNCC3)cccc21 ?
Data returned: 24

Data request: Vd for Cc1cn(S(=O)(=O)c2cccc(F)c2)c2cccc(N3CCNCC3)c12 ?
Data returned: 6.7

----------
Assignment: determine reported clearance for the given molecules.
Assay: Clearance in Sprague-Dawley rat at 2 mg/kg, iv measured for 24 hrs by LC-MS/MS analysis
Assay type: ADME, organism-based
Conditions: in vivo
The reply should be a number in mL/min/kg, with the unit left off.

Data request: // returns reported clearance for input O=S(=O)(c1ccccc1F)n1cc(C(F)F)c2c(N3CCNCC3)cccc21
Data returned: 108

Data request: Would you mind telling me what clearance value was observed for O=S(=O)(c1cccc(Cl)c1)n1cc(C(F)F)c2c(N3CCNCC3)cccc21 ?
Data returned: 82.8

Data request: What measured clearance goes with O=S(=O)(c1ccccc1Cl)n1cc(C(F)F)c2c(N3CCNCC3)cccc21 ?
Data returned: 123

Data request: Give the measured clearance of Cc1cn(S(=O)(=O)c2cccc(F)c2)c2cccc(N3CCNCC3)c12 .
Data returned: 63

Data request: Tell me the measured clearance of O=S(=O)(c1cccc(F)c1)n1cc(C(F)F)c2c(N3CCNCC3)cccc21 , please.
Data returned: 93.4

----------
Would you mind telling me the reported half-life of each entry?
Assay: Half life in Sprague-Dawley rat at 2 mg/kg, iv measured for 24 hrs by LC-MS/MS analysis
Type: ADME, organism-based
Conditions: in vivo

Data request: Suppose we examine the compound O=S(=O)(c1ccccc1F)n1cc(C(F)F)c2c(N3CCNCC3)cccc21 ; what half-life value has been reported?
Data returned: 2.54 h

Data request: Requested read-out: half-life. Entry: O=S(=O)(c1cccc(Cl)c1)n1cc(C(F)F)c2c(N3CCNCC3)cccc21
Data returned: 4.46 h

Data request: Please give the measured half-life for this compound: Cc1cn(S(=O)(=O)c2cccc(F)c2)c2cccc(N3CCNCC3)c12
Data returned: 1.4 h

Data request: Would you kindly share the measured half-life for O=S(=O)(c1cccc(F)c1)n1cc(C(F)F)c2c(N3CCNCC3)cccc21 ?
Data returned: 2.28 h

Data request: I have this compound here, O=S(=O)(c1ccccc1Cl)n1cc(C(F)F)c2c(N3CCNCC3)cccc21 , and I need its recorded half-life.
Data returned: 2.55 h

----------
Assay: AUC (0 to t) in Sprague-Dawley rat at 2 mg/kg, iv measured for 24 hrs by LC-MS/MS analysis
Type: ADME, organism-based
Design: dose 2 mg/kg, time 24 hrs, route iv
Details: Sprague-Dawley, in vivo
QUANTITY KIND: AUC(0-t) at 24 h

Data request: Requested read-out: AUC(0-t) at 24 h. Entry: O=S(=O)(c1ccccc1Cl)n1cc(C(F)F)c2c(N3CCNCC3)cccc21
Data returned: 242 ng·h/mL

Data request: Name the recorded AUC(0-t) at 24 h for O=S(=O)(c1ccccc1F)n1cc(C(F)F)c2c(N3CCNCC3)cccc21 .
Data returned: 272 ng·h/mL

Data request: What does the record list as AUC(0-t) at 24 h for O=S(=O)(c1cccc(F)c1)n1cc(C(F)F)c2c(N3CCNCC3)cccc21 ?
Data returned: 323 ng·h/mL

Data request: State the recorded AUC(0-t) at 24 h for this entry: O=S(=O)(c1cccc(Cl)c1)n1cc(C(F)F)c2c(N3CCNCC3)cccc21
Data returned: 306 ng·h/mL

----------
Test: Drug concentration in Sprague-Dawley rat brain at 1 mg/kg, iv measured after 15 mins by LC-MS/MS analysis
Assay type: ADME, organism-based
Details: read-out: Ct
QUANTITY KIND: concentration at 0.25 h (ng/g)
Answer with a number only, understood to be in ng/g.

Data request: Recorded concentration at 0.25 h for O=S(=O)(c1cccc(Cl)c1)n1cc(C(F)F)c2c(N3CCNCC3)cccc21 , please?
Data returned: 406

Data request: What concentration at 0.25 h value was documented for this molecule, O=S(=O)(c1cccc(F)c1)n1cc(C(F)F)c2c(N3CCNCC3)cccc21 ?
Data returned: 279

Data provenance: ChEMBL document CHEMBL5107995
